Exercise: for every item that follows, state its recorded 8OG:A repair function score.
B1: library; numbered along this chain (parent)
chain: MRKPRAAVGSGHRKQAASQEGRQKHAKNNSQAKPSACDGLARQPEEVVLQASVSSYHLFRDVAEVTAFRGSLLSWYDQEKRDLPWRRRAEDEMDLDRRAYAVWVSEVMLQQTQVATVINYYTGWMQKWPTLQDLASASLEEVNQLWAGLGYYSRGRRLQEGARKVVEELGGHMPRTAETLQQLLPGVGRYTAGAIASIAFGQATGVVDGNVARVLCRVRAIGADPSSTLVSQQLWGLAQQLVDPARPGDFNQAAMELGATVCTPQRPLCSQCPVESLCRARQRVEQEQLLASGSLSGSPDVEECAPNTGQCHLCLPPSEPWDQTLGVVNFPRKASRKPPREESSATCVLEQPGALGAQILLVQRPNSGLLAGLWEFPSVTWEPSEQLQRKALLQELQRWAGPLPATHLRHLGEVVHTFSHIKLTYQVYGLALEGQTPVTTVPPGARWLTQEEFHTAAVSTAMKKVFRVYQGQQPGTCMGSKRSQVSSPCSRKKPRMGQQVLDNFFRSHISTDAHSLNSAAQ

Variants of: B1
test_summary: 8OG:A repair function score (normalized; synonymous = 0, nonsense = -1) (normalized log-likelihood score); higher = more repair activity (WT-like);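 note: cells sorted at 72 h after reporter transfection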
condition_label: with 8OG:A DNA repair reporter (GFP) in HEK-293 MUTYH KO cells

Example results:
T455S :: 0.128
A280L :: -0.262
V207N :: -0.883
A345I :: 0.0369
E285W :: 0.0108

For each listed entry, give its 8OG:A repair function score.
1. S459I
2. P44T
3. I198C
4. G356C
5. Q351E
6. G368P

1. -0.53
2. 0.166
3. -0.474
4. -0.0641
5. -0.219
6. -0.423

Required: 8OG:A repair function score, one value per variant below.
1. V104S
2. F68K
3. Q470D
4. L387F
5. K127A
6. L234S
7. S294Q

1: -0.759; 2: -0.962; 3: -0.0832; 4: -0.293; 5: -0.303; 6: -0.827; 7: -0.0283

Quick one: give me 8OG:A repair function score for each item below, same order please.
1. F250R
2. W103N
3. A280I
4. Q323G
5. Q232R
6. L423W
7. G471R

1: -1.01; 2: -1.2; 3: -0.189; 4: -0.0264; 5: 0.171; 6: -0.0181; 7: 0.00545

For reference, reported 8OG:A repair function score for `T176M` stands at -0.28
